experiment: Intestinal mucosal permeation using Caco-2 cell monolayers; details: human, Caco-2, pH 7.4
What efflux ratio at 2 h, 5 μM was measured for each of the following?
Just the number, please, no unit attached.

Sure, the documented efflux ratio at 2 h, 5 μM for `COc1cc2nc(N3CCN(C(=O)c4ccco4)CC3)nc(N)c2cc1OC` is 3.28

Sure, the documented efflux ratio at 2 h, 5 μM for `CN1CCC[C@@H]1Cc1c[nH]c2cccc(O)c12` is 0.81

Sure, the documented efflux ratio at 2 h, 5 μM for CC(C)NCC(O)COc1cccc2ccccc12 (stereo not shown) is 0.69

Sure, the documented efflux ratio at 2 h, 5 μM for `C[C@H]1O[C@@H](O[C@H]2[C@@H](O)C[C@H](O[C@H]3[C@@H](O)C[C@H](O[C@H]4CC[C@@]5(C)[C@H](CC[C@@H]6[C@@H]5C[C@@H](O)[C@]5(C)[C@@H](C7=CC(=O)OC7)CC[C@]65O)C4)O[C@@H]3C)O[C@@H]2C)C[C@H](O)[C@@H]1O` is 35.4
